Origin of values: patent US20050154230A1

quantity.measured: melting point

Lab book: melting point of O=C(Nc1ccccc1Cl)Nc1ccccc1CCO noted as 173 to 175 °C

Lab book: melting point of COc1ccc(-c2ccccc2)cc1NC(=O)Nc1ccccc1CCO noted as 178 to 180 °C

Lab book: melting point of O=C(NCc1ccc(F)cc1)Nc1ccccc1CCO noted as 165 to 167 °C

Lab book: melting point of COc1ccc(CNC(=O)Nc2ccccc2CCO)cc1 noted as 175 to 177 °C

Lab book: melting point of O=C(Nc1ccc(Cl)c(-c2ccc(Cl)cc2)c1)Nc1ccccc1CCO noted as 170 to 172 °C

Lab book: melting point of O=C(Nc1ccc(Cl)c(Cl)c1)Nc1ccccc1CCO noted as 188 to 190 °C

Lab book: melting point of O=C(Nc1ccc(F)cc1F)Nc1ccccc1CCO noted as 174 to 176 °C (dec.)

Lab book: melting point of O=C(Nc1ccc(Br)c(C(F)(F)F)c1)Nc1ccccc1CCO noted as 161 to 164 °C

Lab book: melting point of O=C(Nc1cc(Cl)cc(Cl)c1)Nc1ccccc1CCO noted as 214 to 216 °C

Lab book: melting point of O=C(Nc1ccccc1CCO)Nc1cccc2ccccc12 noted as 188 to 191 °C (dec.)

Lab book: melting point of N#Cc1ccc(-c2cccc(NC(=O)Nc3ccccc3CCO)c2)cc1 noted as 180 to 182 °C

Lab book: melting point of O=C(NCc1ccccc1)Nc1ccccc1CCO noted as 149 to 150 °C

Lab book: melting point of O=C(Nc1cccc(-c2ccc(Cl)cc2)c1)Nc1ccc(Cl)cc1CCO noted as 209 to 211 °C

----------
Please respond with reported melting point for every item in the list.

Lab book: melting point of Cc1ccc(CNC(=O)Nc2ccccc2CCO)cc1 [Example 125] noted as 181 to 183 °C

Lab book: melting point of O=C(NCc1ccccc1Cl)Nc1ccccc1CCO [Example 126] noted as 183 to 185 °C

Lab book: melting point of O=C(Nc1cc(C(F)(F)F)ccc1F)Nc1ccccc1CCO [Example 189] noted as 150 to 152 °C

Lab book: melting point of N#Cc1ccc(NC(=O)Nc2ccccc2CCO)cc1Cl [Example 191] noted as 186 to 187 °C

Lab book: melting point of COc1ccc(Cl)cc1-c1cccc(NC(=O)Nc2ccccc2CCO)c1 [Example 228] noted as 126 to 129 °C

Lab book: melting point of O=C(Nc1ccc(Cl)c(C(F)(F)F)c1)Nc1ccccc1CCO [Example 98] noted as 175 to 177 °C

Lab book: melting point of Cc1cccc(CNC(=O)Nc2ccccc2CCO)c1 [Example 124] noted as 148 to 150 °C

Lab book: melting point of COc1ccc(F)cc1-c1cccc(NC(=O)Nc2ccccc2CCO)c1 [Example 235] noted as 158 to 160 °C

Lab book: melting point of O=C(Nc1cccc(-c2ccccc2Cl)c1)Nc1ccc(Cl)cc1CCO [Example 245] noted as 191 to 193 °C

Lab book: melting point of O=C(Nc1ccc(Cl)c(C(F)(F)F)c1)Nc1cccc(C(F)(F)F)c1CCO [Example 254] noted as 201 °C

Lab book: melting point of O=C(Nc1ccc(F)c(F)c1)Nc1ccccc1CCO [Example 179] noted as 162 to 164 °C

Lab book: melting point of Cc1ccc(NC(=O)Nc2ccccc2CCO)cc1Cl [Example 148] noted as 195 to 196 °C

Lab book: melting point of Cc1cccc(NC(=O)Nc2ccc(Cl)c(C(F)(F)F)c2)c1CCO [Example 256] noted as 201 °C

Lab book: melting point of CCOC(=O)c1cccc(NC(=O)Nc2ccccc2CCO)c1 [Example 100] noted as 152 to 153 °C

Lab book: melting point of O=C(Nc1cccc(-c2ccc([N+](=O)[O-])cc2)c1)Nc1ccccc1CCO [Example 229] noted as 197 to 198 °C

Lab book: melting point of O=C(Nc1cc(Cl)nc(Cl)c1)Nc1ccccc1CCO [Example 154] noted as 194 °C

Lab book: melting point of O=C(Nc1ccc(Cl)cc1)Nc1ccccc1CCO [Example 106] noted as 185 to 187 °C
